Molecular target: Histamine H1 receptor (Cavia porcellus, UniProt P31389)
Sequence (P31389 whole entry): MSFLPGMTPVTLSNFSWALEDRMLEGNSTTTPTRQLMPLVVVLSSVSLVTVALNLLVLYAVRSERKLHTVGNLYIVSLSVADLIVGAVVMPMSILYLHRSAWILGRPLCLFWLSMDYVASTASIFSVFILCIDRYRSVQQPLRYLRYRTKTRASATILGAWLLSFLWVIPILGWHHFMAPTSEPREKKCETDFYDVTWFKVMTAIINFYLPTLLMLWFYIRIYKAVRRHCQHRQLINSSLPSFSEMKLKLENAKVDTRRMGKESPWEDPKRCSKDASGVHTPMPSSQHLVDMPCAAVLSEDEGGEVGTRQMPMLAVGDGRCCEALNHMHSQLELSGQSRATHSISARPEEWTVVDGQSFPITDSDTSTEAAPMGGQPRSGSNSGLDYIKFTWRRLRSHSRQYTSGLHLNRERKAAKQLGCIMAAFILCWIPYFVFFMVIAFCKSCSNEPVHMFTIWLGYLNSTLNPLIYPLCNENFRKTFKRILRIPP
MEASURED PROPERTY: pIC50
Give bare numbers, as −log10 of the molar value.

Here is how some compounds turned out for pIC50.
• CCOCCn1cc(C2CCN(Cc3cccc(C(=O)O)c3)CC2)c2ccccc21 = 6.39
• COc1ccc(CN2CCC(c3cn(Cc4ccc(Cl)s4)c4ccccc34)CC2)cc1C(=O)O = 6.44
• CCOCCn1cc(C2CCN(CCOc3ccccc3C=O)CC2)c2ccccc21 = 7.07
• CCCCn1cc(C2CCN(Cc3cccc(C(=O)O)c3)CC2)c2ccccc21 = 6.56
• CCOCCn1cc(C2CCN(Cc3ccc(OC)c(C(=O)O)c3)CC2)c2ccccc21 = 6.16

Give pIC50 for all compounds that follow.
1. COc1ccc(CN2CCC(c3cn(Cc4ccoc4)c4ccccc34)CC2)cc1C(=O)O
2. CCCCn1cc(C2CCN(Cc3ccc(OC)c(C(=O)O)c3)CC2)c2ccccc21
3. O=C(O)c1cccc(CN2CCC(c3cn(Cc4ccc(Cl)s4)c4ccccc34)CC2)c1
4. O=C(O)c1cccc(CN2CCC(c3cn(Cc4ccoc4)c4ccccc34)CC2)c1

Given back:
1: 6.69; 2: 6.32; 3: 6.48; 4: 6.25
